# credit: patent US9284321B2

readout type: melting point (°C)

N#Cc1cc(-c2ccc(F)c(F)c2)c2c(c1)cc1n2CCCNC1=O: 224.5
C[C@@H]1CNC(=O)c2cc3cc(F)cc(-c4ccc(F)c(F)c4)c3n21: 267
N#Cc1cc(-c2ccc(F)nc2)c2c(c1)cc1n2CCCNC1=O: 264.5
COc1ccc(-c2cc(F)cc3cc4n(c23)[C@H](C)CNC4=O)cc1: 228.5
Cc1c2n(c3c(-c4ccc(F)c(F)c4)cc(Cl)cc13)CCNC2=O: 235.5
Cc1c2n(c3c(-c4ccncc4)cc(C#N)cc13)CCNC2=O: 307
O=C1NCCCn2c1cc1cc(F)cc(-c3ccc(Cl)cc3)c12: 263.5
